Can you tell me inhibition for the items I'm about to list?
Test system: Epidermal growth factor receptor (Homo sapiens), P00533 [L861Q]
Sequence (P00533 whole entry L861Q): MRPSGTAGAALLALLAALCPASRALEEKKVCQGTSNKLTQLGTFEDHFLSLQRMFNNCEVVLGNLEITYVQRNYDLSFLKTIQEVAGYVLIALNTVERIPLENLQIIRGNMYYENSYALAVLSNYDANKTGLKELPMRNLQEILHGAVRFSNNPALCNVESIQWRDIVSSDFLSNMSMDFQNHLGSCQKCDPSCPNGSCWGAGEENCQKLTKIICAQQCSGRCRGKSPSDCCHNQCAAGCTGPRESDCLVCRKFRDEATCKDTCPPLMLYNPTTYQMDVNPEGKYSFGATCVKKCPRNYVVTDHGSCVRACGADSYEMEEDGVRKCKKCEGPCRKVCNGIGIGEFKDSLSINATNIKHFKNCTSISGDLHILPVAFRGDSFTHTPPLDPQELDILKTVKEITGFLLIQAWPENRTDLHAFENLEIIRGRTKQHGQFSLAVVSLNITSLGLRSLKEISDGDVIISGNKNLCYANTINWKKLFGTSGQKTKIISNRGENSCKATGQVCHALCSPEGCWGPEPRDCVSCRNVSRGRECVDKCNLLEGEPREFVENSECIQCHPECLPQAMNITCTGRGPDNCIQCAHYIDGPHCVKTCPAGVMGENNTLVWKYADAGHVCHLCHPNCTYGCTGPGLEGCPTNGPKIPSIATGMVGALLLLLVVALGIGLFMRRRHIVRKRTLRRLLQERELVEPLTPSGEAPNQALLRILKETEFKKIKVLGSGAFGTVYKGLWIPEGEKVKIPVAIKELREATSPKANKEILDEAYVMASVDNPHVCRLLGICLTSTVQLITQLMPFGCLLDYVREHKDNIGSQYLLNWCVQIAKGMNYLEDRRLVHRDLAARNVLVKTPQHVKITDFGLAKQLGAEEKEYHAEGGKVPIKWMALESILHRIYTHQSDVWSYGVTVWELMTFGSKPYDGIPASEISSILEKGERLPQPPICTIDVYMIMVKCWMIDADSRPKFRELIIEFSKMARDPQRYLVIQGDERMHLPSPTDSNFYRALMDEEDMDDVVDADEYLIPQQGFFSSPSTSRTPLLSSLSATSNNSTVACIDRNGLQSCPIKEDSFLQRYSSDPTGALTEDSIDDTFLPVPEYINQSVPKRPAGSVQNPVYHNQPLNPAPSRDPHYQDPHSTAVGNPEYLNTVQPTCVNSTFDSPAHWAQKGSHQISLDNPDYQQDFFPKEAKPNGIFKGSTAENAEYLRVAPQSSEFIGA
applied_conditions: at 1 µM
The reply should be a number in %, with the unit left off.

Incoming: Entry under review: COc1cc(C=NNc2ncnc3c2cnn3-c2ccccc2)ccc1O . Reported inhibition?
Outgoing: 38.2

Incoming: Next record, please: CN(C)c1cc2c(Nc3ccc4nc(Cc5ccccc5)[nH]c4c3)ncnc2cn1
Outgoing: 40.3

Incoming: Next record, please: CCn1c(-c2nonc2N)nc2c(C#CC(C)(C)O)nc(CN3CCCC3)cc21
Outgoing: -4.01

Incoming: Next record, please: NC(=O)c1cccc(Nc2nccc(Nc3cccc4[nH]ncc34)n2)c1
Outgoing: 27.8

====

Can you tell me inhibition for the items I'm about to list?
assay_target: Inhibitor of nuclear factor kappa-B kinase subunit alpha (Homo sapiens) (UniProt O15111);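 also: mean inhibition of IKKA, from the GSK PKIS data set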
Sequence (O15111 whole entry): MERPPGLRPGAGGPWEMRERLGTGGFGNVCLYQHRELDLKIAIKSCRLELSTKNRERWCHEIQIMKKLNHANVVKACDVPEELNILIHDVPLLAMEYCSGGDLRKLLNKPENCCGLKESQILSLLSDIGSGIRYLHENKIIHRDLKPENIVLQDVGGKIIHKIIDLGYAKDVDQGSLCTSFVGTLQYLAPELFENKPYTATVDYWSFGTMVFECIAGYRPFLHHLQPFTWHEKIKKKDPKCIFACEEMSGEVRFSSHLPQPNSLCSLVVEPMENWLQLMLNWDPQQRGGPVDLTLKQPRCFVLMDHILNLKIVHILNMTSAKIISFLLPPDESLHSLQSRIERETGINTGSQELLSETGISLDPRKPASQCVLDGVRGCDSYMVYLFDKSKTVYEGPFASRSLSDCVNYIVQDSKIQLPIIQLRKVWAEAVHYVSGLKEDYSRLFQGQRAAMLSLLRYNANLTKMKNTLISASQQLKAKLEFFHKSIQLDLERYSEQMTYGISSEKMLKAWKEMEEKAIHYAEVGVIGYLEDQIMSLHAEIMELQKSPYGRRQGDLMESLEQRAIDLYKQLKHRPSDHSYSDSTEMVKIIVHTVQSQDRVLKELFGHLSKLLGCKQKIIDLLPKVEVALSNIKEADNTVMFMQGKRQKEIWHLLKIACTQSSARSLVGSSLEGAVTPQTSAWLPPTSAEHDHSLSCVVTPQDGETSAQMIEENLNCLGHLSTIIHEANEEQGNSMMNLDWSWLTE
applied_conditions: at 1 µM
The reply should be a number in %, with the unit left off.

Incoming: Entry under review: COC(=O)Nc1nc2cc(Oc3cccc(NC(=O)Nc4cc(C(F)(F)F)ccc4F)c3)ccc2[nH]1 . Reported inhibition?
Outgoing: 4.99

Incoming: Next record, please: COc1cc2ncn(-c3cc(OCc4ccccc4Cl)c(C(N)=O)s3)c2cc1OC
Outgoing: 5.14

Incoming: Next record, please: Fc1cccc(COc2ccc(Nc3ncnc4cc(-c5ccc[nH]5)sc34)cc2Cl)c1
Outgoing: 1.99

====

Can you tell me inhibition for the items I'm about to list?
assay_target: Serine/threonine-protein kinase D1 (Homo sapiens) (UniProt Q15139);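 also: each value is an averaged percent inhibition of PRKD1 kinase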
Sequence (whole entry): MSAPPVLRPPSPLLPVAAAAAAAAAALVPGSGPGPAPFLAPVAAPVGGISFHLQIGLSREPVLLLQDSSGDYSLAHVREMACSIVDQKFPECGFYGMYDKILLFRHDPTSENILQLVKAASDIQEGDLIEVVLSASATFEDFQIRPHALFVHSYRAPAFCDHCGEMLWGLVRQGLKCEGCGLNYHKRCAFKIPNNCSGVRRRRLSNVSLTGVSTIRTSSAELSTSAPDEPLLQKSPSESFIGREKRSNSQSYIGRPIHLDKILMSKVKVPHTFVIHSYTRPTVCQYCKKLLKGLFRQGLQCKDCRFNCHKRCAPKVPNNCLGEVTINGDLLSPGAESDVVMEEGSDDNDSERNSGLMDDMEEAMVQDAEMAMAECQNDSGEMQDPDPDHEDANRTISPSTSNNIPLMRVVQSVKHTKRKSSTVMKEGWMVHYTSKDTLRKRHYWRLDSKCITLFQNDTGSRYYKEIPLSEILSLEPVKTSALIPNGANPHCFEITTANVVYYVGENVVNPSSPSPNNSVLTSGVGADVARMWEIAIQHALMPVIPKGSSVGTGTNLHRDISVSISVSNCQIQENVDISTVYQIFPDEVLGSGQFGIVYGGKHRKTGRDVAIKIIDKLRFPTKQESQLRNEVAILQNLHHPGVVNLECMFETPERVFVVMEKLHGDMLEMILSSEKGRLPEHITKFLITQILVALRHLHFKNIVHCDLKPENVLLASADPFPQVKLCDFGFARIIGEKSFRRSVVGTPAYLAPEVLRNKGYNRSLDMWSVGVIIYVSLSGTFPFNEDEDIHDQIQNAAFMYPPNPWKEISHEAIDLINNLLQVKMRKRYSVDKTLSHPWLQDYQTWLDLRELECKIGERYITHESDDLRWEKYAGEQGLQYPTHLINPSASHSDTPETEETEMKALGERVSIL
applied_conditions: at 1 µM
The reply should be a number in %, with the unit left off.

Incoming: Entry under review: O=C1NC(=O)C(N2CCc3ccccc32)=C1c1ccc(Cl)cc1 . Reported inhibition?
Outgoing: 5.59

Incoming: Next record, please: COc1cc2ncn(-c3cc(O[C@@H](C)c4ccccc4Cl)c(C(N)=O)s3)c2cc1OC
Outgoing: 6.69

Incoming: Next record, please: CNC(=O)c1cncc(/C=C/c2c(Cl)cccc2Cl)c1
Outgoing: 5
